IL-2 release EC50, NCI-H226 co-culture, Donor A reference
target: human CD137 on primary human CD8+ T cells (human, UniProt Q07011 24-255); experiment: cell-based or functional assay
Sequence (Q07011 24-255): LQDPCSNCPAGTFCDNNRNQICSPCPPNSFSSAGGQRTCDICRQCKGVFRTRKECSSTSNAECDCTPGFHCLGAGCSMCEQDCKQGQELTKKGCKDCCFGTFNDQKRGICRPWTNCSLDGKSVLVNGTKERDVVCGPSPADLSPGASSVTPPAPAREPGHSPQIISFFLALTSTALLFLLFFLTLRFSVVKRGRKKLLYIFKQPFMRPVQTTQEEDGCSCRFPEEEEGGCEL
recorded-endpoint: IL-2 release EC50, NCI-H226 co-culture, Donor A (nM)

# binder, observed
measured = [
    ("FS22-172-003-AA/FS28-024-051 (bispecific antibody, human IgG1, kappa, L234A L235A, V domains shown, IgG1 mAb^2 with LALA) VH: EVQLLESGGGLVQPGGSLRLSCAASGFTLSYSSMSWVRQAPGKGLEWVSFITPSTGYTHYADSVKGRFTISRDNSKNTLYLQMNSLRAEDTAVYYCARRALIFDYWGQGTLVTVSS VL: EIVLTQSPGTLSLSPGERATLSCRASQSVSSSYLAWYQQKPGQAPRLLIYGASSRATGIPDRFSGSGSGTDFTLTISRLEPEDFAVYYCQQASSYPLTFGQGTKVEIKR", 0.08),
    ("FS22-172-003-AA/FS28-256-005 (bispecific antibody, human IgG1, kappa, L234A L235A, V domains shown, IgG1 mAb^2 with LALA) VH: EVQLLESGGGLVQPGGSLRLSCAASGFTFTETYMSWVRQAPGKGLEWVSNISPTYSTTNYADSVKGRFTISRDNSKNTLYLQMNSLRAEDTAVYYCARYNSYQGGLDYWGQGTLVTVSS VL: EIVLTQSPGTLSLSPGERATLSCRASQSVSSSYLAWYQQKPGQAPRLLIYGASSRATGIPDRFSGSGSGTDFTLTISRLEPEDFAVYYCQQALGYPHTFGQGTKVEIKR", 1.63),
    ("FS22-172-003-AA/FS28-256-027 (bispecific antibody, human IgG1, kappa, L234A L235A, V domains shown, IgG1 mAb^2 with LALA) VH: EVQLLESGGGLVQPGGSLRLSCAASGFTFTHTYMSWVRQAPGKGLEWVSNISPTYSTTNYADSVKGRFTISRDNNKNTLYLQMNSLRAEDTAVYYCARYNAYHAALDYWGQGTLVTVSS VL: EIVLTQSPGTLSLSPGERATLSCRASQSVSSSYLAWYQQKPGQAPRLLIYGASSRATGIPDRFSGSGSGTDFTLTISRLEPEDFAVYYCQQTVPYPYTFGQGTKVEIKR", 0.05),
]
